target entity: Signal peptidase I (Escherichia coli K-12)
Sequence (P00803 whole entry): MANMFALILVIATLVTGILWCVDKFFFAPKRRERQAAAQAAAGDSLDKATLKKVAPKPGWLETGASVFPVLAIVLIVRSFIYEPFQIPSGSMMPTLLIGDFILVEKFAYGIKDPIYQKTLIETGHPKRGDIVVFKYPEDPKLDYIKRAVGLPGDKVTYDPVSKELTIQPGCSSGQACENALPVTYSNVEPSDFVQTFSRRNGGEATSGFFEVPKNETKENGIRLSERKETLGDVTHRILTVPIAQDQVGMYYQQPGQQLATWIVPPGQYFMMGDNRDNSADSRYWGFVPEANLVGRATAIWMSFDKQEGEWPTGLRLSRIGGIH
assay explanation: Inhibition of full length Escherichia coli His6-tagged LepB expressed in Escherichia coli C43(DE3) using dabcyl-VEVGGTATAGAFSRPGLE-(EDANS) as substrate preincubated for 10 mins followed by substrate addition measured for 2 hrs by FRET assay
pIC50: −log10 of the molar value.
# reported pIC50; entries follow

{"columns": ["compound", "pIC50"],
 "data": [
  ["CCCCCCc1ccc(-c2ccc(C(=O)N3CC(CN)C[C@H]3C(=O)N[C@H](C(=O)N[C@@H](C)C(=O)N[C@@H](CC(N)=O)C(=O)N[C@@H](C)B(O)O)[C@H](C)O)cc2)cc1 (stereo partly drawn)", 8.22],
  ["CCCCCCc1ccc(-c2ccc(C(=O)N3CCC[C@H]3C(=O)N[C@H](C(=O)N[C@@H](C)C(=O)N[C@@H](CC(N)=O)C(=O)N[C@@H](C)B(O)O)[C@H](C)O)cc2)cc1", 6.64],
  ["CCCCc1ccc(-c2ccc(C(=O)N[C@@H](CCN)C(=O)N[C@H](C(=O)N[C@@H](C)C(=O)N[C@@H](CCCCN)C(=O)N[C@@H](C)B3O[C@@H]4C[C@@H]5C[C@@H](C5(C)C)[C@]4(C)O3)[C@H](C)O)cc2)cc1", 6.96]
]}
